Reference for the values: patent US6433178B1

Assay: Pharmacokinetics in male Wistar rats after an oral dose
Type: in vivo
Details: rat, plasma, oral dose of ~20 mg/kg, solution in PEG 400/Ethanol/Water (40/15/45), mean (SD), read-out: AUC(0-tldc) (area under the plasma concentration-time curve from zero time to the last detectable concentration)
Assignment: determine reported AUC for the given molecules.
Give bare numbers, in ng·h/mL.

Molecule: Cl.O=C(c1ccccc1)N1CCCC(CCCN2CCC(c3ccccc3)CC2)(c2ccc(Cl)c(Cl)c2)C1 (stereo not drawn)
AUC / ng·h/mL: 572
--
Molecule: Cl.O=C(c1ccccc1)N1CCCC(CCCN2CCC(O)(c3ccccc3)CC2)(c2ccc(Cl)c(Cl)c2)C1 (stereo not drawn)
AUC / ng·h/mL: 716

Query molecule follows.
[ask] Quick check: AUC of CC(=O)N(C)C1(c2ccccc2)CCN(CCC[C@]2(c3ccc(Cl)c(Cl)c3)CCCN(C(=O)c3ccccc3)C2)CC1 [SR 142801, reference compound] ?
[reply] 703

====

Would you mind telling me the reported pIC50 of each entry?
Molecular target: human NK1 receptors (Homo sapiens, UniProt P25103)
Sequence (P25103 whole entry): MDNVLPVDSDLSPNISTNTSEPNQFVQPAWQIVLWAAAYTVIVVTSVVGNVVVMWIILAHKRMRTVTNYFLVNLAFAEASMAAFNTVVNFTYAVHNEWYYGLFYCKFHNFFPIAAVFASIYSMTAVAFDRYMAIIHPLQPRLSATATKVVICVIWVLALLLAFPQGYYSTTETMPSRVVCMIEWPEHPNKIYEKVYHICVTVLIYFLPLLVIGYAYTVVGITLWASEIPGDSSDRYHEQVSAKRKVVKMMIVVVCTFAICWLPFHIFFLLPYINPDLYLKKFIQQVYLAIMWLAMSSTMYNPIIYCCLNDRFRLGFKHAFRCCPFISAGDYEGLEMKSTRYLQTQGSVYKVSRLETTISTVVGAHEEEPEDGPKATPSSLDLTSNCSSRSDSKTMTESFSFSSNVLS
Assay: Receptor binding in transfected CHO cells (125I-labeled ligand displacement), NK1
Details: CHO cells expressing human NK1; 0.2 nM 125I-labeled ligand; 1 hour at room temperature
pIC50: −log10 of the molar value.

Consider the worked cases shown below.
Compound: Cl.O=C(c1ccccc1)N1CCCC(CCCN2CCC(c3ccccc3)CC2)(c2ccc(Cl)c(Cl)c2)C1 (stereo not drawn) [Compound 20-3, monohydrochloride]
pIC50: 6.16
--
Compound: Cl.O=C(c1ccccc1)N1CCCC(CCCN2CCC(O)(c3ccccc3)CC2)(c2ccc(Cl)c(Cl)c2)C1 (stereo not drawn) [Compound 20-2, monohydrochloride]
pIC50: < 6.00

Lab note: next compound to report on.
[ask] Which measured pIC50 belongs to Cl.O=C(c1ccccc1)N1CCCC(CCCN2CCC(O)(CS(=O)(=O)c3ccccc3)CC2)(c2ccc(Cl)c(Cl)c2)C1 (stereo not drawn) [Compound 20-1, monohydrochloride] , tested on human NK1 receptors (Homo sapiens, UniProt P25103)?
[reply] < 6.00
